Numbers sourced from patent US20240376056A1.

- targetEntity: IL-17A/A (Homo sapiens, UniProt Q16552)
- Sequence (Q16552 24-155): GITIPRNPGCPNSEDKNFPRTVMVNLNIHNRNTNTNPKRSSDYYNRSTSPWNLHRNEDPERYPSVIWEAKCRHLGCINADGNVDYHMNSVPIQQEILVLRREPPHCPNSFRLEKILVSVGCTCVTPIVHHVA
- measurementNotes: HEK-Blue IL-17A/A inhibition assay (SEAP reporter)
- particulars: HEK-Blue cells (HEK 293 expressing IL-17RA, IL-17RC, Act1); IL-17A/A stimulation; 20 hours; SEAP read at A630; 4-parameter fit
pIC50: −log10 of the molar value.
Measured pIC50, listed per entry.

Please review the entries below; each comes with its answer.
INSERT INTO assay_data (compound, datavalue) VALUES
  ('CC(C)n1nccc1C(=O)N[C@H](C(=O)Nc1ccc([C@H](C)C(=O)NCC(F)F)cc1F)C(C1CC1)C1CC1', '6.00 to 7.00'),
  ('CCn1nccc1C(=O)N[C@H](C(=O)Nc1ccc([C@H](C)C(=O)N(C)CC(F)(F)F)cc1F)C1CCC2(CC1)CC2', '6.00 to 7.00');

Inquiry: What does the data say about its pIC50? Entry: `CC(C)n1nccc1C(=O)N[C@H](C(=O)Nc1ccc([C@H](C)C(=O)NC2(C(F)(F)F)COC2)cc1F)C(C1CC1)C1CC1`
Reply text: < 6.00

Inquiry: // same read-out, input: CCN(CC(F)(F)F)C(=O)C(C)c1ccc(NC(=O)[C@@H](NC(=O)c2ccnn2CC)C2CCCCCC2)c(F)c1 (single isomer, unassigned) [Compound 70]
Reply text: 6.00 to 7.00

Inquiry: // same read-out, input: `CC(C)n1nccc1C(=O)N[C@H](C(=O)Nc1ccc([C@H](C)C(=O)NCC(F)(F)CO)cc1F)C(C1CC1)C1CC1`
Reply text: < 6.00

Inquiry: // same read-out, input: CC(C)n1nccc1C(=O)N[C@H](C(=O)Nc1ccc([C@H](C)C(=O)N2C(C(N)=O)CCC2C(F)(F)F)cc1F)C(C1CC1)C1CC1 (single isomer, unassigned) [Compound 147]
Reply text: < 6.00

Inquiry: // same read-out, input: `CC(C)n1nccc1C(=O)N[C@H](C(=O)Nc1cc(CN(C)C)c([C@H](C)C(=O)NCC(F)(F)F)cc1F)C(C1CC1)C1CC1`
Reply text: 6.00 to 7.00

Inquiry: // same read-out, input: CC(C(=O)N1CCC(C(N)=O)C1C(F)(F)F)c1cc(F)c(NC(=O)[C@@H](NC(=O)c2ccnn2C(C)C)C(C2CC2)C2CC2)cc1C(F)(F)F (stereo partly drawn) [Compound 228]
Reply text: 6.00 to 7.00

Inquiry: // same read-out, input: `CCn1nccc1C(=O)N[C@H](C(=O)Nc1ccc(C(C)(C)C(=O)NCC(F)(F)F)cc1F)C1CCCCCC1`
Reply text: 6.00 to 7.00

Inquiry: // same read-out, input: CC(C(=O)NCC(F)(F)F)c1cc(F)c(NC(=O)[C@@H](NC(=O)c2ccnn2C(C)C)C2CCC(F)(F)CC2)cc1OC(F)(F)F (single isomer, unassigned) [Compound 219]
Reply text: 6.00 to 7.00

Inquiry: // same read-out, input: CC(C)n1nccc1C(=O)N[C@H](C(=O)Nc1ccc(C(N)C(=O)NCC(F)(F)F)cc1F)C(C1CC1)C1CC1 (single isomer, unassigned) [Compound 189]
Reply text: < 6.00

Inquiry: // same read-out, input: `CC(C)n1nccc1C(=O)N[C@H](C(=O)Nc1ccc([C@H](C)C(=O)N2CCC(F)(F)C2)cc1F)C(C1CC1)C1CC1`
Reply text: 6.00 to 7.00
